Molecular target: T1, human ApoC3 (huApoC3), native protein purified from human serum (human, UniProt P02656 21-99)
T1 construct: Athens Research and Technology; randomly biotinylated in some assays; also called Apolipoprotein C3
T1 sequence (P02656 21-99): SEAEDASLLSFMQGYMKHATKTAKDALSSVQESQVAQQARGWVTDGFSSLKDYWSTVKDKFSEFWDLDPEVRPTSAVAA
Experiment: SPR Biacore, huApoC3 on chip, scFv-Fc as analyte
valueKind: Ka (M⁻¹)
Reply numerically in M⁻¹, unit not repeated.

INSERT INTO results (binder, readoutvalue) VALUES
  ('8B7 scFv-Fc (Fc fusion, scFv-Fc format) VH: EVQVQESGPGLVKPSQTLSLTCTVSGASITNRRYAWTWIRQPPGKGLEWMGVIVYDGNTHVSPSLRSRTSISRDTSKNQFSLQLSSLTPEDTAVYYCARVLLLRDPLSLDYWGQGTQVTVSS VL: SSALTQPPSMSGTLGKTLTISCAGTSSDIGAYNFVSWYQQLPGTAPKLLIYDIDKRASGIPDRFSGSKSGNTASLSISGLQSEDEADYYCAAYGSRDNVVFGGGTHLTVL', '4.16e+09'),
  ('5A4 scFv-Fc (Fc fusion, scFv-Fc format) VH: QLQLVESGGGLVQPGGSLRLSCVASGFAFSHYTMYWVRQAPVRGLERVSAISGGGDRTIYTDSVKGRFTISRDNAANALYLQMNSLQPEDTAVYYCVAQGYEYWGQGTRVTVSS VL: ATMLTQSPGSLSVVPGESASISCKAIQSLVHTDGKTYLYWFLQKPGQSPQRLIYQVSNRGSGVPDRFTGSGSGTDFTLKISGVKAEDAGVYYCAQGTYSSKTFGQGTKLEIK', '3.02e+09'),
  ('8H4 scFv-Fc (Fc fusion, scFv-Fc format) VH: ELQLVESGGGLVQPGRSLRLSCAASGFTFSSYSMRWVRQTPGKGLEWVTSINSDGGSTKYSDSVKGRFTISRDNAKNTLYLQMNNVKPEDTAIYYCAIQGYTDWGQGTQVTVSS VL: DVVLTQTPGSLSVVPGESASISCKVSQSLVHSDGKTYLYWLLQKPGQSPQRLIYQVSNRDSGVPDRFTGSGSGTDFTLKISGVKAEDAGVYYCAQGTYNPYTFGSGTRLEIK', '2.52e+09'),
  ('6A6 scFv-Fc (Fc fusion, scFv-Fc format) VH: EVQLVESGGGLVQPGGSLRLSCAASGFTFSSYAGRWVRQVPGKGLEWVSSINAGGGSTSYADSVKGRFTISRDNAKNTLYLQMNSLKPEDTAKYYCTQNSYRYWGQGTRVAVSS VL: DVVLTQTPGSLSVVPGESASISCKASQSLIHTDGKTYLYWLLQKPGQRPQLLIYQVSSHESGVPDRFTGSGSGTDFTLKISGVKAEDAGVYYCAQATYNPRTFGQGTKLEIK', '6.41e+09');

Exercise: Ka lookup needed for 8A4 scFv-Fc (Fc fusion, scFv-Fc format) VH: QVQLVESGGGLVQPGGSLKVSCTASGFTFNNYAMRWVRQAEGKGLEWVSSIDSGGDRTKYGDSVKGRFSISRDNAKNTVYLQMDALKPEDTGVYYCVSQGYIFWGQGAQVTVSS VL: ATMLTQSPGSLSVVPGESASISCKASQSLVHSDGKTYLYWLLQKPGQRPQLLIYQVSNHESGVPDRFTGSGSGTDYTLKISGVKAEDAGVYYCAQATYYPLTFGQGTKVELK , thanks.
Key: 4.27e+09
